Assay: pKa of the lipid by TNS fluorescence
Format: physicochemical
Settings: pKa
propertyName: pKa
Answer with the value's number alone.

Check out these entries, answers already filled in.
CCCCC/C=C\C/C=C\CCCCCCCCOCC(CN1CCC[C@H]1C)OCCOCCO[C@H]1CC[C@@]2(C)C(=CCC3C2CC[C@@]2(C)C3CC[C@@H]2[C@H](C)CCCC(C)C)C1 (stereo partly drawn) [E0049]    6.85
CCCCC/C=C\C/C=C\CCCCCCCCOCC(CN(C)C)OCCCCO[C@H]1CC[C@@]2(C)C(=CCC3C2CC[C@@]2(C)C3CC[C@@H]2[C@H](C)CCCC(C)C)C1 (stereo partly drawn) [E0173, reference compound]    6.73

Next item in the queue.
molecule CCCCCCCC/C=C\CCCCCCCCOCC(CN1CCCCC1)OCCOC(=O)CCCC(=O)O[C@H]1CC[C@@]2(C)C(=CC[C@H]3[C@@H]4CC[C@H]([C@H](C)CCCC(C)C)[C@@]4(C)CC[C@@H]32)C1 (stereo partly drawn) [E0151] , pKa observed: 6.06

###

Below, each entry is listed alongside its reported Final size (nm).
Assay: Particle size and PDI by dynamic light scattering (Malvern Zetasizer)
Format: physicochemical
Conditions: lipid/DSPC/CHOL/AVANTI 880150P 50/28/18/4, N/P 3.43
API: value field is a number in nm; no unit string.

CCCCC/C=C\C/C=C\CCCCCCCCOCC(CN1CCC[C@@H]1COC)OCCOCCO[C@H]1CC[C@@]2(C)C(=CC[C@H]3C4CC[C@H]([C@H](C)CCCC(C)C)[C@@]4(C)CC[C@@H]32)C1 (stereo partly shown)    96

The compound identified as CCCCC/C=C\C/C=C\CCCCCCCCOCC(CN1C[C@@H](C)O[C@@H](C)C1)OCCOCCO[C@H]1CC[C@@]2(C)C(=CC[C@H]3[C@@H]4CC[C@H]([C@H](C)CCCC(C)C)[C@@]4(C)CC[C@@H]32)C1 (stereo partly shown) registered its Final size (nm) at 146

compound CCCCC/C=C\C/C=C\CCCCCCCCOCC(CN1CCC(F)(F)CC1)OCCOCCO[C@H]1CC[C@@]2(C)C(=CCC3C2CC[C@@]2(C)C3CC[C@@H]2[C@H](C)CCCC(C)C)C1 (stereo partly shown) , Final size (nm) observed: 133

Per the record, CCCCC/C=C\C/C=C\CCCCCCCCOCC(CN1CCC(CCC)C1)OCCOCCO[C@H]1CC[C@@]2(C)C(=CCC3C2CC[C@@]2(C)C3CC[C@@H]2[C@H](C)CCCC(C)C)C1 (stereo partly shown) has Final size (nm) of 97

###

Test: Particle size and PDI by dynamic light scattering (Malvern Zetasizer)
Type: physicochemical
Details: lipid/no neutral lipid/CHOL/AVANTI 880150P 50/0/46/4, N/P 3.43
Excerpt: Unless indicated otherwise, all sizes referred to herein are the average sizes (diameters) of the fully formed nanoparticle, as measured by dynamic light scattering on a Malvern Zetasizer. […] The acronym PDI stands for polydispersity index. Unless indicated otherwise, all PDIs referred to herein are the PDI of the fully formed nanoparticle, as measured by dynamic light scattering on a Malvern Zetasizer. […]
propertyName: Final size (nm)
Write the answer as a number in nm, unit excluded.

CCCCC/C=C\C/C=C\CCCCCCCCOCC(CN1CCOCC1)OCCOCCO[C@H]1CC[C@@]2(C)C(=CC[C@H]3[C@@H]4CC[C@H]([C@H](C)CCCC(C)C)[C@@]4(C)CC[C@@H]32)C1 (some centres unmarked)    108

The value of Final size (nm) measured for the compound CCCCC/C=C\C/C=C\CCCCCCCCOCC(CN1CCCC1c1ccccc1)OCCOCCO[C@H]1CC[C@@]2(C)C(=CC[C@H]3[C@@H]4CC[C@H]([C@H](C)CCCC(C)C)[C@@]4(C)CC[C@@H]32)C1 (some centres unmarked) turned out to be 103

###

Test: Particle size and PDI by dynamic light scattering (Malvern Zetasizer)
Assay type: physicochemical
Settings: lipid/no neutral lipid/CHOL/AVANTI 880150P 50/0/46/4, N/P 3.43
Excerpt: Unless indicated otherwise, all sizes referred to herein are the average sizes (diameters) of the fully formed nanoparticle, as measured by dynamic light scattering on a Malvern Zetasizer. […] The acronym PDI stands for polydispersity index. Unless indicated otherwise, all PDIs referred to herein are the PDI of the fully formed nanoparticle, as measured by dynamic light scattering on a Malvern Zetasizer. […]
Listed here: items and their measured Final size (nm).
Provide only the numeric value, understood in nm.

The molecule listed as CCCCC/C=C\C/C=C\CCCCCCCCOCC(CN1CCC2(CC1)OCCCO2)OCCOCCO[C@H]1CC[C@@]2(C)C(=CCC3C2CC[C@@]2(C)C3CC[C@@H]2[C@H](C)CCCC(C)C)C1 (stereo partly drawn) [E0007] shows Final size (nm) equal to 138

GET /value?item= CCCCC/C=C\C/C=C\CCCCCCCCOC[C@@H](CN1CCCCC1)OCCOCCO[C@H]1CC[C@@]2(C)C(=CCC3C2CC[C@@]2(C)C3CC[C@@H]2[C@H](C)CCCC(C)C)C1 (stereo partly drawn) [E0034] &field=Final size (nm) returns 99

Data point: CCCCC/C=C\C/C=C\CCCCCCCCOCC(CN1CC[C@@H]2CCCC[C@@H]2C1)OCCOCCO[C@H]1CC[C@@]2(C)C(=CCC3C2CC[C@@]2(C)C3CC[C@@H]2[C@H](C)CCCC(C)C)C1 (stereo partly drawn) [E0021] ; Final size (nm) = 72

# Final size (nm) (molecule: CCCCC/C=C\C/C=C\CCCCCCCCOCC(CN1CC2CCCC2C1)OCCOCCO[C@H]1CC[C@@]2(C)C(=CC[C@H]3[C@@H]4CC[C@H]([C@H](C)CCCC(C)C)[C@@]4(C)CC[C@@H]32)C1 (stereo partly drawn) [E0022] ) is 84

Entry CCCCC/C=C\C/C=C\CCCCCCCCOCC(CN1CCC(OC)CC1)OCCOCCO[C@H]1CC[C@@]2(C)C(=CCC3C2CC[C@@]2(C)C3CC[C@@H]2[C@H](C)CCCC(C)C)C1 (stereo partly drawn) [E0005] , Final size (nm) reported as 146

Record CCCCC/C=C\C/C=C\CCCCCCCCOCC(CN1CCC(N(C)C)C1)OCCOCCO[C@H]1CC[C@@]2(C)C(=CC[C@H]3[C@@H]4CC[C@H]([C@H](C)CCCC(C)C)[C@@]4(C)CC[C@@H]32)C1 (stereo partly drawn) [E0039] . Reported Final size (nm): 94

Form field Final size (nm), entry CCCCC/C=C\C/C=C\CCCCCCCCOCC(CN1CCSCC1)OCCOCCO[C@H]1CC[C@@]2(C)C(=CCC3C2CC[C@@]2(C)C3CC[C@@H]2[C@H](C)CCCC(C)C)C1 (stereo partly drawn) [E0031] : 65

Kindly note the recorded Final size (nm) for CCCCC/C=C\C/C=C\CCCCCCCCOCC(CN(C)C)OCCOCCO[C@H]1CC[C@@]2(C)C(=CC[C@H]3[C@@H]4CC[C@H]([C@H](C)CCCC(C)C)[C@@]4(C)CC[C@@H]32)C1 (stereo partly drawn) [E0172, reference compound] , which is 129

Record summary for CCCCC/C=C\C/C=C\CCCCCCCCOCC(CN1CCCCC1)OCCOCCNC(=O)O[C@H]1CC[C@@]2(C)C(=CCC3C2CC[C@@]2(C)C3CC[C@@H]2[C@H](C)CCCC(C)C)C1 (stereo partly drawn) [E0054] : reported Final size (nm) = 96

The recorded Final size (nm) for entry CCCCC/C=C\C/C=C\CCCCCCCCOCC(CN1CCCCC1)OC(=O)COCC(=O)O[C@H]1CC[C@@]2(C)C(=CCC3C2CC[C@@]2(C)C3CC[C@@H]2[C@H](C)CCCC(C)C)C1 (stereo partly drawn) [E0047] equals 112

Entry CCCCC/C=C\C/C=C\CCCCCCCCOCC(CN1CCOCC1)OCCCCO[C@H]1CC[C@@]2(C)C(=CCC3C2CC[C@@]2(C)C3CC[C@@H]2[C@H](C)CCCC(C)C)C1 (stereo partly drawn) [E0028] , Final size (nm) reported as 68

CCCCC/C=C\C/C=C\CCCCCCCCOCC(CN1CCC[C@@H]1C)OCCOCCO[C@H]1CC[C@@]2(C)C(=CCC3C2CC[C@@]2(C)C3CC[C@@H]2[C@H](C)CCCC(C)C)C1 (stereo partly drawn) [E0048] has a reported Final size (nm) of 225

The recorded Final size (nm) for entry CCCCC/C=C\C/C=C\CCCCCCCCOCC(CN1CCCCCC1)OCCOCCO[C@H]1CC[C@@]2(C)C(=CC[C@H]3[C@@H]4CC[C@H]([C@H](C)CCCC(C)C)[C@@]4(C)CC[C@@H]32)C1 (stereo partly drawn) [E0017] equals 97

###

Collected Final size (nm) values appear next to each entry.
Experiment: Particle size and PDI by dynamic light scattering (Malvern Zetasizer)
Assay type: physicochemical
Conditions: lipid/no neutral lipid/CHOL/AVANTI 880150P 50/0/46/4, N/P 3.43
Answer with a number only, understood to be in nm.

CCCCC/C=C\C/C=C\CCCCCCCCOCC(CN1CCC(N2CCCCC2)CC1)OCCOCCO[C@H]1CC[C@@]2(C)C(=CCC3C2CC[C@@]2(C)C3CC[C@@H]2[C@H](C)CCCC(C)C)C1 (stereo partly drawn)    186
CCCCC/C=C\C/C=C\CCCCCCCCOCC(CN1CCCC(C)C1)OCCOCCO[C@H]1CC[C@@]2(C)C(=CCC3C2CC[C@@]2(C)C3CC[C@@H]2[C@H](C)CCCC(C)C)C1 (stereo partly drawn)    99
CCCCC/C=C\C/C=C\CCCCCCCCOCC(CN1CC[C@@H]2CCCC[C@H]2C1)OCCOCCO[C@H]1CC[C@@]2(C)C(=CCC3C2CC[C@@]2(C)C3CC[C@@H]2[C@H](C)CCCC(C)C)C1 (stereo partly drawn)    81
CCCCC/C=C\C/C=C\CCCCCCCCOCC(CN1CCC(C)(C)CC1)OCCOCCO[C@H]1CC[C@@]2(C)C(=CCC3C2CC[C@@]2(C)C3CC[C@@H]2[C@H](C)CCCC(C)C)C1 (stereo partly drawn)    90

Per the record, CCCCC/C=C\C/C=C\CCCCCCCCOC[C@H](CN1CCCCC1)OCCOCCO[C@H]1CC[C@@]2(C)C(=CCC3C2CC[C@@]2(C)C3CC[C@@H]2[C@H](C)CCCC(C)C)C1 (stereo partly drawn) has Final size (nm) of 76

Notebook: CCCCC/C=C\C/C=C\CCCCCCCCOCC(CN1CCC(C)(C)C1)OCCOCCO[C@H]1CC[C@@]2(C)C(=CC[C@H]3[C@@H]4CC[C@H]([C@H](C)CCCC(C)C)[C@@]4(C)CC[C@@H]32)C1 (stereo partly drawn) , Final size (nm) read as 87

get_value(item= CCCCC/C=C\C/C=C\CCCCCCCCOCC(CN1CCC2(CC1)OCCO2)OCCOCCO[C@H]1CC[C@@]2(C)C(=CCC3C2CC[C@@]2(C)C3CC[C@@H]2[C@H](C)CCCC(C)C)C1 (stereo partly drawn) , readout=Final size (nm)) returns 178

Short answer for CCCCC/C=C\C/C=C\CCCCCCCCCCC(CN(C)C)OC(=O)CCC(=O)O[C@H]1CC[C@@]2(C)C(=CCC3C2CC[C@@]2(C)C3CC[C@@H]2[C@H](C)CCCC(C)C)C1 (stereo partly drawn) [E0174, reference compound] : Final size (nm) was 90

The measured Final size (nm) associated with CCCCC/C=C\C/C=C\CCCCCCCCOCC(CN1Cc2ccccc2C1)OCCOCCO[C@H]1CC[C@@]2(C)C(=CCC3C2CC[C@@]2(C)C3CC[C@@H]2[C@H](C)CCCC(C)C)C1 (stereo partly drawn) reads 113

Hello, the source for this data is patent US9301923B2, in case you need it.
